Where these numbers come from: paper PMC9265530

# measuredOn: OcTPC3 (Oryctolagus cuniculus)
# Construct: gene TPCN3; C-terminal EGFP fusion (pEGFP-N1), transient in HEK293; previously cloned cDNA; dimer
# Sequence (B8Q2W0 1-766): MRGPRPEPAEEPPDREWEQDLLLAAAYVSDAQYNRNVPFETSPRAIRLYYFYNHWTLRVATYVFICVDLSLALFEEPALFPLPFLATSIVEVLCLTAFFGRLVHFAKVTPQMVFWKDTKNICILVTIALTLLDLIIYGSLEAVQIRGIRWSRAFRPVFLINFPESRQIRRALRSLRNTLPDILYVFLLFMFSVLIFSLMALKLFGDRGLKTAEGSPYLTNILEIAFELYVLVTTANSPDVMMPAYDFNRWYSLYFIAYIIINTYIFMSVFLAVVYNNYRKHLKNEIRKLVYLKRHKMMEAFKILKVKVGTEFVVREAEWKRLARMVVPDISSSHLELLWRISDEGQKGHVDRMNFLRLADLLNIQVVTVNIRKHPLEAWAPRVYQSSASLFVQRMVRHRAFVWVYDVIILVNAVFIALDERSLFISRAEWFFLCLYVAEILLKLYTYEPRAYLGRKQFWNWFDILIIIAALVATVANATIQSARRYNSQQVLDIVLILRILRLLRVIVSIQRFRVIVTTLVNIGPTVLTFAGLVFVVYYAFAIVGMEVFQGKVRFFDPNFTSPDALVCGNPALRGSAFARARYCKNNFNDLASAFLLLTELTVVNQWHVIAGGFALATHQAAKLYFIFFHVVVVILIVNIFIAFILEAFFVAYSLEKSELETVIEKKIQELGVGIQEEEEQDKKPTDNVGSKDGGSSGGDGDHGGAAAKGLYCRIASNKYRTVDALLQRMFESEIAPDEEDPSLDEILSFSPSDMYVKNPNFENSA
# assayNotes: inside-out patch clamp, tail current at […] mV after +[…] mV step
# Type: biochemical
# conditionsUsed: agonist; relative to 1 µM PI(3,5)P2; 4-s step to +100 mV; pH 7.2
parameterMeasured: % of PI(3,5)P2 response at 1 μM (%)

INSERT INTO measurements (molecule, measuredon, recordedmeasurement) VALUES
  ('CCCCCCCC(=O)OC[C@H](COP(=O)(O)O[C@@H]1[C@H](O)[C@H](O)[C@@H](OP(=O)(O)O)[C@H](OP(=O)(O)O)[C@H]1O)OC(=O)CCCCCCC [PI(4,5)P2]', 'OcTPC3 (Oryctolagus cuniculus)', 9.0),
  ('CCCCCCCC(=O)OC[C@H](COP(=O)(O)O[C@H]1[C@H](O)[C@@H](OP(=O)(O)O)[C@H](OP(=O)(O)O)[C@@H](OP(=O)(O)O)[C@H]1O)OC(=O)CCCCCCC', 'OcTPC3 (Oryctolagus cuniculus)', 7.0),
  ('CCCCCCCC(=O)OC[C@H](COP(=O)(O)O[C@H]1[C@H](O)[C@@H](O)[C@H](OP(=O)(O)O)[C@@H](OP(=O)(O)O)[C@H]1O)OC(=O)CCCCCCC [PI(3,4)P2]', 'OcTPC3 (Oryctolagus cuniculus)', 29.9),
  ('CCCCCCCC(=O)OC[C@H](COP(=O)(O)O[C@@H]1[C@H](O)[C@H](OP(=O)(O)O)[C@@H](O)[C@H](O)[C@H]1O)OC(=O)CCCCCCC', 'OcTPC3 (Oryctolagus cuniculus)', 93.8);

* * *

# measuredOn: OcTPC2 (Oryctolagus cuniculus, UniProt Z9ZIB8IF81)
# Construct: full-length, C-terminal EGFP fusion (pEGFP-N1), transient in HEK293; cloned from rabbit kidney RNA; 749/753 residues match GBCT01193833.1; dimer
# assayNotes: whole-endolysosome patch clamp, current at -100 mV
# conditionsUsed: agonist; voltage ramps; vacuolin-1 enlarged vacuoles; cytoplasmic pH 7.2; room temperature; HEK293
parameterMeasured: EC50 (nM)

INSERT INTO assay_data (compound, parametermeasured, unitssymbol, recordedmeasurement) VALUES
  ('CCCCCCCC(=O)OC[C@H](COP(=O)(O)O[C@@H]1[C@H](O)[C@H](OP(=O)(O)O)[C@@H](O)[C@H](OP(=O)(O)O)[C@H]1O)OC(=O)CCCCCCC [diC8 PI(3,5)P2]', 'EC50', 'nM', 208);
